Source of measurements: the OPERA property sets (Mansouri et al. 2018)

Each item that follows carries a reported logP.
Just the number, please, no unit after it.

Completed entries (count: 2):
O=C1C=C(N2CC=CC2)C(=O)c2ccccc21 : 2.85
NC(=O)c1ccoc1 : 0.09

Given NCc1ccco1 , respond with its logP.
0.37

Please give the documented logP of O=C(c1ccccc1)c1cccc(NS(=O)(=O)C(F)F)c1
2.86

Consider the compound C=CCBr and give its recorded logP.
1.79

Given the compound Cc1ccc(NC(=O)c2cccnc2)cc1 , write its reported logP.
2.08

Consider the compound COc1ccc(CC(C)N)cc1 (stereo not drawn) and give its recorded logP.
1.77

Find the measured logP of Cc1cc(Cl)ccc1NC1=NCCN1 and report it.
1.8
